Tested on: Streptococcus pneumoniae 1175
Assay type: cell-based
Condition summary: Streptococcus pneumoniae 1175; microtiter broth dilution
Experimental readout: MIC S. pneumo. 1175 (µg/mL)
The reply should contain only the number, in µg/mL.

Problem: Requested read-out MIC S. pneumo. 1175, target or system Streptococcus pneumoniae 1175, entry CCC1OC(=O)C(C)C(=O)C(C)C(OC2OC(C)CC(N(C)C)C2O)C(C)(OC)CC(C)C(=O)C(C)C2N(C3CN(Cc4cccc(C#N)c4)C3)C(=O)OC12C (centres unmarked)
Solution: 0.25

Problem: Please answer likewise for CCC1OC(=O)C(C)C(=O)C(C)C(OC2OC(C)CC(N(C)C)C2O)C(C)(OC)CC(C)C(=O)C(C)C2N(C3CN(C(=O)Nc4cccc5ncccc45)C3)C(=O)OC12C (centres unmarked)
Solution: 0.25

Problem: Please answer likewise for CCC1OC(=O)C(C)C(=O)C(C)C(OC2OC(C)CC(N(C)C)C2O)C(C)(OC)CC(C)C(=O)C(C)C2N(C3CN(C(C)c4ccncc4)C3)C(=O)OC12C (stereo not drawn) [Example 1.21, 1R-(pyridin-4-yl)ethyl]
Solution: 0.5

Problem: Please answer likewise for CCC1OC(=O)C(C)C(=O)C(C)C(OC2OC(C)CC(N(C)C)C2O)C(C)(OC)CC(C)C(=O)C(C)C2N(CC3CN(Cc4c[nH]c5ncccc45)C3)C(=O)OC12C (centres unmarked)
Solution: 0.5
